- Target or test system: PIM2 (Homo sapiens, UniProt Q9P1W9)
- Sequence (Q9P1W9 whole entry): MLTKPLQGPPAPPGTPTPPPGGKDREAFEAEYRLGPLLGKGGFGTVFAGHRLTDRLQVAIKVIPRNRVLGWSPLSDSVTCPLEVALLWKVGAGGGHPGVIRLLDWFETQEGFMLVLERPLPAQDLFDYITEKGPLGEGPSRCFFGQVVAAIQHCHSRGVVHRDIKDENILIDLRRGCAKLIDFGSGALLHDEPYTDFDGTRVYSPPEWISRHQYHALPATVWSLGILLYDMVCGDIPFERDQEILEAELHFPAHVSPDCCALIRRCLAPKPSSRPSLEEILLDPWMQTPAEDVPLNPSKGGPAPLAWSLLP
- Test details: Pim 2 AlphaScreen assay (high ATP)
- Type: biochemical
- Condition: read-out: Pim2 IC50
pIC50: −log10 of the molar value.
Quantity kind: pIC50

(I) Nc1cnc(-c2c(F)cccc2F)nc1C(=O)Nc1cnccc1[C@@H]1C[C@H](O)[C@@H](O)C2(CC2)O1 [Example 251]
(II) CC[C@]1(O)[C@H](N)CC(c2ccncc2NC(=O)c2ccc(F)c(-c3c(F)cc(S(C)(=O)=O)cc3F)n2)O[C@@H]1C (stereo in doubt) [Example 284]
(III) CC1(C)C[C@@H](N)C[C@H](c2ccncc2NC(=O)c2nc(-c3ccccc3)cnc2N)O1 [Example 296]
rank_up(items): orders items by reported pIC50 in ascending numerical order. // list labels; follow requested order
I, III, II

----------
- Target or test system: GSK3β (Homo sapiens, UniProt P49841)
- Sequence (P49841 whole entry, species assumed): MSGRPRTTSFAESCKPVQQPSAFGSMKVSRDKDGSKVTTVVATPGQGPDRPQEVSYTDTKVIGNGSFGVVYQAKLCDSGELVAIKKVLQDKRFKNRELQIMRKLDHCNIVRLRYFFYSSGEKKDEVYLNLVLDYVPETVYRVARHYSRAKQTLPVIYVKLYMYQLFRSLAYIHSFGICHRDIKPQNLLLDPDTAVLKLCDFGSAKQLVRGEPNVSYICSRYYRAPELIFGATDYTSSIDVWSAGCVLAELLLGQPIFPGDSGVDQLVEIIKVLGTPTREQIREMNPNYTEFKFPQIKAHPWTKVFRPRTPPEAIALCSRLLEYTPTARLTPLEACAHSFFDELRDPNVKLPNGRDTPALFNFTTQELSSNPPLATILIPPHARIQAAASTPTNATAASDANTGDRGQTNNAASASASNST
- Test details: GSK3β ATP depletion assay
- Type: biochemical
- Condition: read-out: GSK3b IC50
pIC50: −log10 of the molar value.
Quantity kind: pIC50

Use these answered entries as a reference point.
CC[C@H]1O[C@@H](c2ccncc2NC(=O)c2ccnc(-c3c(F)cccc3F)n2)C[C@@H](O)[C@@H]1O: 7.21
CC[C@H]1O[C@@H](c2ccncc2NC(=O)c2nc(-c3c(F)cccc3F)sc2N)C[C@@H](O)[C@@H]1O: 8.70
O=C(Nc1cnccc1[C@H]1C[C@@H](O)[C@H](O)[C@@H](C2CC2)O1)c1cccc(-c2c(F)cccc2F)n1: 6.10
Nc1cnc(-c2c(F)cccc2F)nc1C(=O)Nc1cnccc1[C@@H]1C[C@H](O)[C@]2(O)CCCC[C@@H]2O1: 6.22
O=C(Nc1cnccc1[C@@H]1OCC[C@H](CO)O1)c1csc(-c2c(F)cccc2F)n1: 5.50

(a) N#CC[C@H]1O[C@@H](c2ccncc2NC(=O)c2ccc(F)c(-c3c(F)cccc3F)n2)C[C@@H](O)[C@@H]1O
(b) CC[C@H]1O[C@@H](c2ccncc2NC(=O)c2ccc(F)c(-c3c(F)cccc3F)n2)C[C@@H](O)[C@]1(C)O
(c) CC(C)NC(=O)c1ccc(F)c(-c2ccc(N)c(C(=O)Nc3cnccc3[C@H]3C[C@@H](O)[C@](C)(O)[C@@H](C)O3)n2)c1
(d) N#C[C@H]1O[C@@H](c2ccncc2NC(=O)c2nc(-c3nccs3)ccc2N)C[C@@H](O)[C@@H]1O
(e) N[C@H]1C[C@@H](c2ccncc2NC(=O)c2ccc(F)c(-c3c(F)cccc3F)n2)O[C@H]2CCC[C@]21O
Returns the items ordered by pIC50, from maximum to minimum. // list labels; follow requested order
d, a, c, b, e

----------
- Target or test system: PIM2 (Homo sapiens, UniProt Q9P1W9)
- Test details: Pim 2 AlphaScreen assay (high ATP)
- Assay type: biochemical
- Condition: read-out: Pim2 IC50
pIC50: −log10 of the molar value.
Quantity kind: pIC50

CC[C@]1(O)[C@H](N)C[C@H](c2ccncc2NC(=O)c2nc(-c3ccccc3)cnc2N)O[C@@H]1C: 7.06
CC(C)[C@@H]1C[C@H](N)C[C@H](c2ccncc2NC(=O)c2nc(-c3ccccc3)cnc2N)O1: 7.71

(A) C[C@]1(O)[C@H](N)C[C@H](c2ccncc2NC(=O)c2nc(-c3c(F)cccc3F)c(F)cc2N)O[C@@H]1C1CC1
(B) Nc1ncc(-c2ccccc2)nc1C(=O)Nc1cnccc1[C@@H]1C[C@H](N)[C@@H](O)[C@H](C2CC2)O1
Between the two listed entries A and B , which has its pIC50 at the higher number? Could you answer with the label of the item you picked?
A
(A: 8.21, B: 5.56)

----------
- Target or test system: PIM3 (Homo sapiens, UniProt Q86V86)
- Test details: KinaseGlo Pim3 ATP depletion assay
- Assay type: biochemical
Quantity kind: IC50 (nM)

(A) O=C(Nc1cnccc1[C@H]1C[C@@H](O)[C@H](O)[C@@H](CO)O1)c1csc(-c2c(F)cccc2F)n1 [Example 80]
(B) N#C[C@H]1OC(c2ccncc2NC(=O)c2ccc(F)c(-c3c(F)cccc3F)n2)=C[C@@H](O)[C@@H]1O [Example 21]
(C) O=C(Nc1cnccc1[C@@H]1OCC[C@H](CO)O1)c1ccc(F)c(-c2c(F)cccc2F)n1 [Example 100]
Sort the listed compounds above so the one with the largest IC50 comes first and the smallest comes last. // list labels; follow requested order
A, C, B

----------
- Target or test system: PIM1 (Homo sapiens, UniProt P11309)
- Sequence (P11309 whole entry): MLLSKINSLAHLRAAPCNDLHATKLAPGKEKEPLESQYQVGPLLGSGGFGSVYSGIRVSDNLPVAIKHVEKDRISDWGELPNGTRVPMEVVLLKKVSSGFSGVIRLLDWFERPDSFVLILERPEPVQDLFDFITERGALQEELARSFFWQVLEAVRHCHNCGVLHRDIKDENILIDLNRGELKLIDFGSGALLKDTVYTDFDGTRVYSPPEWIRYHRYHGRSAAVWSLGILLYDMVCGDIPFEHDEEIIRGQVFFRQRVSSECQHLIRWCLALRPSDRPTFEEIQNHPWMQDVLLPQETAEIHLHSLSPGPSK
- Test details: KinaseGlo Pim1 ATP depletion assay
- Format: biochemical
- Method: KinaseGlo Pim1 ATP Depletion Assay The activity of PIM1 is measured using a luciferase-luciferin based ATP detection reagent to quantify ATP depletion resulting from kinase-catalyzed phosphoryl transfer to a peptide substrate. Compounds to be tested are dissolved in 100% DMSO and directly distributed into white 384-well plates at 0.5 μA per well. […] The stopped reaction is incubated for 10 minutes and the remaining ATP detected via luminescence on the Victor2 (Perkin Elmer). […]
Quantity kind: IC50 (nM)

C[C@H]1O[C@@H](c2ccncc2NC(=O)c2ccc(F)c(-c3c(F)cccc3F)n2)[C@H](F)C(=O)[C@]1(C)O: 1
O=C(Nc1cnccc1[C@]1(C(F)(F)F)C[C@H](O)CCO1)c1ccc(F)c(-c2c(F)cccc2F)n1: 28
C=C[C@H]1OC(c2ccncc2NC(=O)c2ccc(F)c(-c3c(F)cccc3F)n2)=C[C@@H](O)[C@@H]1O: 1
O=C(Nc1cnccc1[C@H]1C[C@@H](O)[C@H](O)[C@@H](CO)O1)c1csc(-c2c(F)cccc2F)n1: 44

(A) Nc1cnc(-c2c(F)cccc2F)nc1C(=O)Nc1cnccc1[C@@H]1C[C@H](O)[C@@H](O)[C@H](C2CC2)O1
(B) CC[C@H]1O[C@@H](c2ccncc2NC(=O)c2nc(-c3c(F)cccc3F)sc2N)C[C@@H](O)[C@@H]1O
(C) O=C(Nc1cnccc1[C@@H]1C[C@H](O)[C@]2(O)CCC[C@@H]2O1)c1ccnn(-c2ccccc2F)c1=O
Hi! Can you put these in order of IC50, lowest number first? // list labels; follow requested order
B, A, C
(B: 1 nM, A: 37.3 nM, C: 6610 nM)

----------
- Target or test system: PIM1 (Homo sapiens, UniProt P11309)
- Test details: KinaseGlo Pim1 ATP depletion assay
- Assay type: biochemical
pIC50: −log10 of the molar value.
Quantity kind: pIC50

Use these answered entries as a reference point.
CC(C)NC(=O)c1ccc(F)c(-c2nc(C(=O)Nc3cnccc3[C@H]3C[C@@H](O)[C@](C)(O)[C@@H](C)O3)ccc2F)c1: 9.00
CC1C(c2ccncc2NC(=O)c2ccc(F)c(-c3c(F)cccc3F)n2)OC(C)[C@H](O)C1O (stereo in doubt) [Example 65]: 9.00
O=C(Nc1cnccc1[C@H]1C[C@@H](O)CC2(CC2)O1)c1csc(-c2c(F)cccc2F)n1: 8.15

(I) CC[C@H]1O[C@@H](c2ccncc2NC(=O)c2csc(-c3c(F)cccc3F)n2)C[C@@H](O)[C@@H]1O
(II) C=C1[C@@H](O)C[C@@H](c2ccncc2NC(=O)c2nc(-c3c(F)cccc3F)ncc2N)OC12CC2
Between the two listed entries I and II , which has its pIC50 at the higher number? Could you answer with the label of the item you picked?
I
(I: 9.00, II: 7.15)

(P) CC[C@]1(O)[C@H](O)C[C@H](c2ccncc2NC(=O)c2ncccc2N)O[C@@H]1C
(Q) C[C@H]1C[C@@H](O)C[C@@H](c2ccncc2NC(=O)c2csc(-c3c(F)cccc3F)n2)O1 (stereo in doubt)
Between P and Q , which one has the lower reported pIC50 value? Could you answer with the label of the item you picked?
P

----------
- Target or test system: KDR kinase (Homo sapiens, UniProt P35968)
- Sequence (P35968 20-1356): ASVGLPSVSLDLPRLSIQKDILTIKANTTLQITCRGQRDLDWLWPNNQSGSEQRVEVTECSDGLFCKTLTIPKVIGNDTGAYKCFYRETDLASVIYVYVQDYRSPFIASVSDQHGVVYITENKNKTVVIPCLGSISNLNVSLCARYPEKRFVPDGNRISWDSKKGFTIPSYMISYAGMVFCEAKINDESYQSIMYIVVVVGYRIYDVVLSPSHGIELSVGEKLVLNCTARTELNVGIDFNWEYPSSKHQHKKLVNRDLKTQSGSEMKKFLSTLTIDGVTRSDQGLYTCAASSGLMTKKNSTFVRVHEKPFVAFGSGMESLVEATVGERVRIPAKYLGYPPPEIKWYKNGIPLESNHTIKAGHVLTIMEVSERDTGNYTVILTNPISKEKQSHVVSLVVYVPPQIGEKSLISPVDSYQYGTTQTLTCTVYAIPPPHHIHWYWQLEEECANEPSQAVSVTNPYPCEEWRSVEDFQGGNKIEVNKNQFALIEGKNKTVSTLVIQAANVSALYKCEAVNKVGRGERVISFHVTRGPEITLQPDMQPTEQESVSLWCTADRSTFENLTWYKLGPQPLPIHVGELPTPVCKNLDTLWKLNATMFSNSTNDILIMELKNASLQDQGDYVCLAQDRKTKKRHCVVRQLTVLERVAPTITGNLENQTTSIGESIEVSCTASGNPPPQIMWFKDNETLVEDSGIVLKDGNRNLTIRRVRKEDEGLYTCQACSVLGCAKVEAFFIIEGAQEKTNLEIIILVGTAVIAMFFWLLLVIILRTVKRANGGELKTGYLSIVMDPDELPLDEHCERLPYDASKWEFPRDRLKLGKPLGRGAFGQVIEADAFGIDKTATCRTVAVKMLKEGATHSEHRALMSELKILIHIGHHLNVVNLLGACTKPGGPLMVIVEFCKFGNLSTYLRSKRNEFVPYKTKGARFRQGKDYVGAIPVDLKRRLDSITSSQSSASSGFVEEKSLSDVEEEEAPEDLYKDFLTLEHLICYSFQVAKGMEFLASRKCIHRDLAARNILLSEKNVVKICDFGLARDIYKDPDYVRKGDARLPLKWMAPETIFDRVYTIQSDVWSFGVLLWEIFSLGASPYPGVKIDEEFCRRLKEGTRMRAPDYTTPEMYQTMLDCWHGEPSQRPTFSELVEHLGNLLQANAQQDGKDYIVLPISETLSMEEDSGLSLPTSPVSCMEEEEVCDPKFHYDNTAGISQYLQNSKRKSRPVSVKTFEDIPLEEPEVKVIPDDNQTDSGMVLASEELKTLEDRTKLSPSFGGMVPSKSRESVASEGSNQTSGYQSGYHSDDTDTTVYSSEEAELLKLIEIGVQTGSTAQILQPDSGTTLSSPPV
- Test details: KDR kinase inhibition assay (LanthaScreen TR-FRET)
- Format: biochemical
- Condition: TR-FRET assay
pIC50: −log10 of the molar value.
Quantity kind: pIC50

Nc1ncc(-c2ccccc2)nc1C(=O)Nc1cnccc1[C@H]1C[C@@H](N)[C@@]2(O)CCC[C@H]2O1: 8.17

(P) Nc1ncc(-c2ccccc2)nc1C(=O)Nc1cnccc1[C@@H]1C[C@H](N)[C@]2(O)CCCC[C@@H]2O1
(Q) CC(C)(C)[C@H]1O[C@@H](c2ccncc2NC(=O)c2nc(-c3ccccc3)cnc2N)C[C@H](N)[C@@H]1O
Between the two listed entries P and Q , which has its pIC50 at the higher number? Could you answer with the label of the item you picked?
Q

----------
- Target or test system: UniProt P49841
- Test details: GSK3β ATP depletion assay
- Assay type: biochemical
- Condition: read-out: GSK3b IC50
pIC50: −log10 of the molar value.
Quantity kind: pIC50

Nc1cc(F)c(-c2ccccc2F)nc1C(=O)Nc1cnccc1[C@H]1C[C@@H](O)[C@H](O)[C@@H](CCl)O1: 7.82

(I) N#C[C@H]1O[C@@H](c2ccncc2NC(=O)c2ccc(F)c(-c3c(F)cccc3F)n2)C[C@@H](O)[C@@H]1O
(II) C[C@H]1O[C@@H](c2ccncc2NC(=O)c2nc(-c3ccccc3)cnc2N)C[C@@H](O)[C@]1(C)O
(III) O=C(Nc1cnccc1[C@@H]1C[C@@H](O)[C@H](O)[C@@H](CO)O1)c1ccc(F)c(-c2c(F)cccc2F)n1
Hi! Can you put these in order of pIC50, lowest number first? // list labels; follow requested order
III, I, II
